Molecular target: C5a receptor (Homo sapiens)
Construct: endogenous in cells; host or cells: fresh human polymorphonuclear leukocytes (PMNs), intact cells
Sequence (P21730 1-350): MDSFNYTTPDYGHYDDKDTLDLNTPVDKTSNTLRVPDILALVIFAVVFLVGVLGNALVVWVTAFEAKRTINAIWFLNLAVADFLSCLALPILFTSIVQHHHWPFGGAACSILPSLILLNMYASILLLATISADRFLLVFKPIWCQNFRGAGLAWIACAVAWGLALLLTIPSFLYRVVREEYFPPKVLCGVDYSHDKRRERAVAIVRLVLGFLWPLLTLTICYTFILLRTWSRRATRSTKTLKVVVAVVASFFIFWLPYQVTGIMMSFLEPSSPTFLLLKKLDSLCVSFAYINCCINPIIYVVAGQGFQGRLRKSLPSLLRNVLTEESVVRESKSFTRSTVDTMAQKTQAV
Experiment: Agonist activity in human PMNs
Format: cell-based
Conditions: dose range 0.1 nM-1 mM; human PMNs
Property Measured: Agonist Activity

>>> recorded_value("CN[C@@H](Cc1ccccc1)C(=O)N[C@@H](CCCCN)C(=O)N1CCC[C@H]1C(=O)N[C@H](CC1CCCCC1)C(=O)N[C@@H](Cc1c[nH]c2ccccc12)C(=O)N[C@@H](CCCNC(=N)N)C(=O)O [Compound 9, MeFKP(dCha)WR]")
"No"
>>> recorded_value("CC(=O)N[C@@H](Cc1ccccc1)C(=O)N[C@H]1CCCCNC(=O)[C@@H](CCCNC(=N)N)NC(=O)[C@H](Cc2c[nH]c3ccccc23)NC(=O)[C@@H](CC2CCCCC2)NC(=O)[C@@H]2CCCN2C1=O [Compound 11, Ac-F-[KP(dCha)Wr]")
"No"
